Value source: the METLIN SMRT retention time set (Domingo-Almenara et al. 2019)

- test: gradient 5% acetonitrile 3 min, to 50% in 2 min, to 85% in 15 min, held 3 min, 100 µL/min
- reported-conditions: column: Zorbax Extend-C18 2.1 x 50 mm; eluents: water / acetonitrile, 0.1% formic acid
Cut-off 800 s on RP-LC retention time: below means 1 (yes), at or above means 0 (no).

[
  {
    "molecule": "COCCOCc1nc(C2CCCN2C(=O)c2ccoc2)no1 (stereo not given)",
    "class-name": "1 (yes)"
  },
  {
    "molecule": "Cc1ccn2cc(-c3ccc(NS(=O)(=O)c4cccc(F)c4)cc3)nc2n1",
    "class-name": "1 (yes)"
  },
  {
    "molecule": "Cc1ccc(N2CC(c3noc(-c4ccc(C(C)(C)C)cc4)n3)CC2=O)cc1 (stereo not given)",
    "class-name": "0 (no)"
  },
  {
    "molecule": "COc1ccccc1-n1ccn2cc(-c3ccc(F)cc3F)nc2c1=O",
    "class-name": "0 (no)"
  },
  {
    "molecule": "O=C1CCN(C(=O)Nc2ccccc2)CCOCCN1",
    "class-name": "1 (yes)"
  }
]
